target: T1, ALKTG (human ALK amino acids 648-985) (human, UniProt Q9UM73 648-985, N-linked glycans; EndoH-trimmed for crystals and SEC-MALLS)
T1 construct: Fc-His6 tag removed by caspase 3; also called ALK TG supradomain
T1 sequence (Q9UM73 648-985 limits assumed): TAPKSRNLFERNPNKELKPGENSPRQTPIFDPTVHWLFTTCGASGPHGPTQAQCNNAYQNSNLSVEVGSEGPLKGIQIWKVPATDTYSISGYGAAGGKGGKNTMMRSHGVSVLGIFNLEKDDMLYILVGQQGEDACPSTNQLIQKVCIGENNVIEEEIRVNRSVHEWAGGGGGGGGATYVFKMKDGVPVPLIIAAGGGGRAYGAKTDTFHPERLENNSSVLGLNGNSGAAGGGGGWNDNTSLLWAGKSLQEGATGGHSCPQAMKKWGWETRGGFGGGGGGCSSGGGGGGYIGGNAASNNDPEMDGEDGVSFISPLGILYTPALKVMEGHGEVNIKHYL
experimental protocol: ITC at 310 K, ALKAL2 (33 µM) titrated with ALKTG (330 µM), one-site model
pKd: −log10 of the molar value.
measurement kind: pKd

- binder: "ALKAL2 (truncated, residues 78-152) (ligand, human, UniProt Q6UX46 78-152, looked up, range 78-152; Tag-free in ITC, SEC-MALLS, crystals and Ba/F3 assays; also called ALKAL2^WT; WT ALKAL2) PSPEQRVEIVPRDLRMKDKFLKHLTGPLYFSPKCSKHFHRLYHNTRDCTIPAYYKRCARLLTRLAVSPVCMEDKQ"
  measurement kind: "pKd"
  test result: 5.89
